Test target: UniProt:P21917
Below, each entry is listed with its recorded IC50.

c1ccc(CCC2CN(Cc3ccccc3)CCO2)cc1 (stereo unspecified): 1480 nM
FC(F)(F)Oc1cccc(CN2CCOC(CCc3ccccc3)C2)c1 (stereo unspecified): 390 nM
COc1ccc(CN2CCOC(CCc3ccccc3)C2)cc1 (stereo unspecified): 170 nM
FC(F)(F)Oc1ccc(CN2CCO[C@H](CCc3ccccc3)C2)cc1: 230 nM

Query: IC50; subject: Cc1ccccc1CN1CCOC(CCc2ccccc2)C1 (stereo unspecified) 3680 nM

Now the same for `Clc1ccc(CN2CCO[C@H](CCc3ccccc3)C2)cc1` 130 nM

Data provenance is PubChem BioAssay AID743372.
